- measurement_target: isolated human PHF (Homo sapiens, UniProt P10636)
- Sequence (P10636 623-695 limits assumed): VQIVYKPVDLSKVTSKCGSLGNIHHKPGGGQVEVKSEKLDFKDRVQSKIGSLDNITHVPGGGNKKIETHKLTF
- assay: Saturation binding of radioligand to isolated PHF
- Protocol: Purified, soluble PHF was isolated from AD brain tissue using a protocol modified from the procedure described by Jicha et al.. […] Isolated PHF was analyzed in a tau MC-1 ELISA and a tau AT8 ELISA, which recognizes tau phosphorylated at both Ser 202 and Thr 205 [3]. The dissociation constant (Kd) was determined by saturation binding, in which the total and non-specific binding of the radioligand was measured at various concentrations. […]
measurement_name: pKd
Numbers only, as −log10 of the molar value.

For the compound Fc1ccc(-c2ccc3c(c2)[nH]c2ccncc23)cn1 [[^18F]flortaucipir] , what pKd is on record?
9.24
